Target: human GIP receptor (Homo sapiens)
Construct: expressed in transfected cells; host or cells: BHK (baby hamster kidney) cells, membrane preparation
Sequence (P48546 22-466): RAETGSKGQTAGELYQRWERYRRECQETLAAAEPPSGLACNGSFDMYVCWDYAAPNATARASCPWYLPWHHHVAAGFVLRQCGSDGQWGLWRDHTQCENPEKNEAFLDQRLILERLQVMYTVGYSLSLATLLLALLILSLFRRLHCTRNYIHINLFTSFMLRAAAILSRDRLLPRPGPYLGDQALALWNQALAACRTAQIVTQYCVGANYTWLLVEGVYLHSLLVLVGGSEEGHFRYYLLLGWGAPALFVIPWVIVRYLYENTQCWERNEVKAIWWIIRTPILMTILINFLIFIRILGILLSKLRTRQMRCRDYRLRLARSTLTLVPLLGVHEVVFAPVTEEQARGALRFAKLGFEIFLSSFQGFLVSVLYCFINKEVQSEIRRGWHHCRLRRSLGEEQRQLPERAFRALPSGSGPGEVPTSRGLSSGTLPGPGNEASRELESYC
Assay: GIP Binding Assay

| Compound | IC50 |
| --- | --- |
| O=C(NCC(O)C(=O)O)c1ccc(CN(C(=O)Nc2cc(Cl)cc(Cl)c2)c2ccc(C3=CCCCC3)cc2)cc1 (racemic) | 448 nM |

---

Measured IC50 by item
target: human GIP receptor (Homo sapiens, UniProt P48546); construct: expressed in transfected cells; host or cells: BHK (baby hamster kidney) cells, membrane preparation; assay: GIP Binding Assay; settings: membranes of BHK cells transfected with human GIP receptor, 125I-GIP, SPA; read-out: GIP Bd Assay IC50

| Compound | Prefix operator | IC50 / nM |
| --- | --- | --- |
| O=C(NC[C@@H](O)C(=O)O)c1ccc(CN(C(=O)Cc2cccc(Br)c2)c2ccc(C3CCCCC3)cc2)cc1 | > | 3000 |
| CC(NC(=O)N(Cc1ccc(C(=O)NC[C@@H](O)C(=O)O)cc1)c1ccc(C2CCCCC2)cc1)c1ccc(Br)cc1 (mixture of isomers) | > | 3000 |
| O=C(NC[C@@H](O)C(=O)O)c1ccc(CN(C(=O)Nc2ccc(OC(F)(F)F)c(CO)c2)c2ccc(C3CCCCC3)cc2)cc1 | = | 357 |
| N#Cc1cc(NC(=O)N(Cc2ccc(C(=O)NC[C@@H](O)C(=O)O)cc2)c2ccc(C3=CCCCC3)cc2)cc(C(F)(F)F)c1 | = | 292 |
| COc1cc(NC(=O)N(Cc2ccc(C(=O)NC[C@@H](O)C(=O)O)cc2)c2ccc(C3=CCCCC3)cc2)cc(C(F)(F)F)c1 | = | 294 |
| O=C(NC[C@@H](O)C(=O)O)c1ccc(CN(C(=O)Cc2ccc(-c3ccccc3)cc2)c2ccc(C3CCCCC3)cc2)cc1 | > | 3000 |

---

molecular target: human GIP receptor (Homo sapiens); construct: expressed in transfected cells; host or cells: BHK (baby hamster kidney) cells, membrane preparation; experiment: GIP Binding Assay; details: membranes of BHK cells transfected with human GIP receptor, 125I-GIP, SPA; read-out: GIP Bd Assay IC50
Measured IC50 by item
Recorded metric: IC50 (nM)

| Smiles str | Prefix operator | Result number |
| --- | --- | --- |
| O=C(NC[C@@H](O)C(=O)O)c1ccc(CN(C(=O)Cc2cccc(C(F)(F)F)c2)c2ccc(C3CCCCC3)cc2)cc1 | > | 3000 |
| O=C(NC[C@@H](O)C(=O)O)c1ccc(CN(C(=O)Nc2ccc3c(c2)C(F)(F)OC(F)(F)O3)c2ccc(C3CCCCC3)cc2)cc1 | = | 226 |
| O=C(NC[C@@H](O)C(=O)O)c1ccc(CN(C(=O)Nc2cc(F)cc(F)c2)c2ccc(C3CCCCC3)cc2)cc1 | = | 427 |
| O=C(NC[C@@H](O)C(=O)O)c1ccc(CN(C(=O)CCc2cccc([N+](=O)[O-])c2)c2ccc(C3CCCCC3)cc2)cc1 | > | 3000 |

Ref: patent US6953812B2
